Values from PubChem BioAssay AID248

// values below are reported T/C
# Test system: L1210 leukemia ip in BDF1 mice, survival T/C
# method summary: NCI In Vivo Anticancer Drug Screen. Data for tumor model L1210 Leukemia (intraperitoneal) in B6D2F1 (BDF1) mice
# condition set: endpoint: mean survival time; dose: 150.0 mg/kg/injection; schedule: Q01DX009 (ip); vehicle: Klucel (hydroxypropylcellulose) (HPC); higher = longer survival
Toxic doses and inconclusive results are not listed.

Completed entries (count: 3):
* CCC(C)Sc1ccc(C)cc1 (centres undefined) | 102 % of control
* C[n+]1ccccc1/C=N/O | 108 % of control
* Clc1ccc(OCc2sc3ccc(Br)cc3c2CN2CCOCC2)cc1 | 105 % of control

Problem: Please look at this molecule and report its T/C: CCCCCCCCCC1CCC(C(=O)O)CC1 (centres undefined)
Solution: 96 % of control

====

# System: L1210 leukemia ip in BDF1 mice, survival T/C
# method summary: NCI In Vivo Anticancer Drug Screen. Data for tumor model L1210 Leukemia (intraperitoneal) in B6D2F1 (BDF1) mice
# condition set: endpoint: mean survival time; dose: 400.0 mg/kg/injection; schedule: Q04DX002 (ip); vehicle: Klucel (hydroxypropylcellulose) (HPC); higher = longer survival
Toxic doses and inconclusive results are not listed.
endpoint: T/C

• COc1ccc(OC)c(NC(=O)Oc2ccc(Br)cc2Br)c1 = 86 % of control
• CN(C)CCCNc1nc(-c2cc(C(F)(F)F)cc(C(F)(F)F)c2)nc(C(Cl)(Cl)Cl)n1 = 106 % of control
• CCCCCCNC(=O)c1cccc(C(=O)NCCCCCC)c1 = 98 % of control
• ON=C1c2ccccc2-c2ccccc21 = 104 % of control
• CCc1cccc(CC)c1NC(=O)c1ccccc1Cl = 94 % of control

Problem: State its T/C for this compound: Cc1n[n+]([O-])c(C)cc1Cl
Solution: 119 % of control

====

# System: L1210 leukemia ip in BDF1 mice, survival T/C
# method summary: NCI In Vivo Anticancer Drug Screen. Data for tumor model L1210 Leukemia (intraperitoneal) in B6D2F1 (BDF1) mice
# condition set: endpoint: mean survival time; dose: 400.0 mg/kg/injection; schedule: Q04DX003 (ip); vehicle: saline with Tween-80; higher = longer survival
Inconclusive results and toxic doses are left out.
Listed compounds paired with reported T/C

Worked cases, T/C given:
- CCN/C(C)=C\C(=O)OCC: 105 % of control
- O=Cc1ccc(C=O)cc1: 106 % of control

Problem: Entry CN(Cc1ccccc1)C(=O)NC1CCCCC1 needs its T/C filled in; supply it.
Solution: 95 % of control

Problem: Provide only the value of recorded T/C for O=C(NC(CO)C(O)c1ccc([N+](=O)[O-])cc1)C(Cl)Cl (centres undefined)
Solution: 106 % of control

Problem: Determine its reported T/C: C(/C=C/c1ccccc1)=C1c2ccccc2-c2ccccc21
Solution: 95 % of control

Problem: Identify T/C associated with the compound NP(N)(=O)c1ccccc1
Solution: 105 % of control

====

T/C by entry:
# Test system: L1210 leukemia ip in BDF1 mice, survival T/C
# method summary: NCI In Vivo Anticancer Drug Screen. Data for tumor model L1210 Leukemia (intraperitoneal) in B6D2F1 (BDF1) mice
# condition set: endpoint: mean survival time; dose: 400.0 mg/kg/injection; schedule: Q04DX003 (ip); vehicle: Klucel (hydroxypropylcellulose) (HPC); higher = longer survival
Inconclusive results and toxic doses are left out.

- O=c1oc2ccccc2c(O)c1C(c1ccc2c(c1)CCC2)c1c(O)c2ccccc2oc1=O: 92 % of control
- O=C1C=C(OCc2ccccc2)C(=O)C(OCc2ccccc2)=C1: 95 % of control
- CN(C)/C=N/Nc1ccc([N+](=O)[O-])cc1[N+](=O)[O-]: 97 % of control

Then this compound:
Problem: Annotate the compound O=C(O)CSC(=S)SCC(=O)O with its measured T/C.
Solution: 101 % of control
